experimentalProtocol: Stability of 4-hydroxybenzyl isothiocyanate in buffered aqueous solutions (citrate buffers)
Format: physicochemical
measurementConditions: citrate buffer; pH 5.5 buffer
recordedMetric: half-life (min)

>>> numericresult("Oc1ccc(CN=C=S)cc1 [4-hydroxybenzyl isothiocyanate]")
49

====

experimentalProtocol: Stability of 4-hydroxybenzyl isothiocyanate in buffered aqueous solutions (citrate buffers)
Format: physicochemical
measurementConditions: citrate buffer; pH 3.0 buffer
recordedMetric: half-life (h)

>>> numericresult("Oc1ccc(CN=C=S)cc1 [4-hydroxybenzyl isothiocyanate]")
5.35

====

experimentalProtocol: Stability of 4-hydroxybenzyl isothiocyanate in buffered aqueous solutions (citrate buffers)
Type: physicochemical
measurementConditions: citrate buffer; pH 6.5 buffer
recordedMetric: half-life (min)

>>> numericresult("Oc1ccc(CN=C=S)cc1 [4-hydroxybenzyl isothiocyanate]")
6
